Listing of recorded viability, T/C by entry.
System: 695427-040-R-J1-PDC complex spheroids, viability percent T/C
testMethodNotes: Anticancer human tumor 695427-040-R-J1-PDC patient-derived colon adenocarcinoma cell line growth inhibition [GQUAD]
details: second compound 0.1 µM; first compound 0.316 µM; active compounds read low
Entry rule: numbers only, all in %.

{"molecule": "COc1ccc([C@@H](O)c2cc(-c3ncnc4cc(N5CCOCC5)ccc34)c(F)cc2Cl)nn1 + Cc1[nH]c2ccc(F)cc2c1-c1nc2c3cccnc3c3ncccc3c2[nH]1", "viability, T/C (%)": 83.5}
{"molecule": "O=C(c1cc(Cc2n[nH]c(=O)c3ccccc23)ccc1F)N1CCN(C(=O)C2CC2)CC1 + Cc1cnc(CNC(=O)c2c(=O)c3ccc(N4CCCN(C)CC4)nc3n3c2sc2ccccc23)cn1", "viability, T/C (%)": 95.5}

I have this molecule here, CC(C)n1c(=O)n(C)c2cnc3cc(F)c(-c4ccc(OCCCN5CCCCC5)nc4)cc3c21 + CN(C)c1ccc(Nc2c3ccc(NC(=O)CCN4CCCC4)cc3nc3cc(NC(=O)CCN4CCCC4)ccc23)cc1 , and I need its recorded viability, T/C.
106

---

Listing of recorded viability, T/C by entry.
Tested on: 695427-040-R-J1-PDC complex spheroids, viability percent T/C
testMethodNotes: Anticancer human tumor 695427-040-R-J1-PDC cell line growth inhibition [GQUAD];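 note: spheroids exposed to compounds for seven days before readout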
details: second compound 1 µM; first compound 0.0999 µM; active compounds read low
Entry rule: numbers only, all in %.

Worked examples follow.
{"compound": "CCc1c2c(nc3ccc(O)cc13)-c1cc3c(c(=O)n1C2)COC(=O)[C@]3(O)CC + CN(C)c1ccc(Nc2c3ccc(NC(=O)CCN4CCCC4)cc3nc3cc(NC(=O)CCN4CCCC4)ccc23)cc1", "valueKind": "viability, T/C", "number": 66.8}
{"compound": "CCc1c2c(nc3ccc(O)cc13)-c1cc3c(c(=O)n1C2)COC(=O)[C@]3(O)CC + Cc1cnc(CNC(=O)c2c(=O)c3ccc(N4CCCN(C)CC4)nc3n3c2sc2ccccc23)cn1", "valueKind": "viability, T/C", "number": 40.4}
{"compound": "Cc1[nH]c2ccccc2c1CCNCc1ccc(/C=C/C(=O)NO)cc1 + Cc1cnc(CNC(=O)c2c(=O)c3ccc(N4CCCN(C)CC4)nc3n3c2sc2ccccc23)cn1", "valueKind": "viability, T/C", "number": 67.5}
{"compound": "Cn1ncnc1[C@H]1c2n[nH]c(=O)c3cc(F)cc(c23)N[C@@H]1c1ccc(F)cc1 + CN(C)c1ccc(Nc2c3ccc(NC(=O)CCN4CCCC4)cc3nc3cc(NC(=O)CCN4CCCC4)ccc23)cc1", "valueKind": "viability, T/C", "number": 101}
{"compound": "Cc1[nH]c2ccccc2c1CCNCc1ccc(/C=C/C(=O)NO)cc1 + Cc1[nH]c2ccc(F)cc2c1-c1nc2c3cccnc3c3ncccc3c2[nH]1", "valueKind": "viability, T/C", "number": 98.9}
{"compound": "CC[C@@]1(O)C(=O)OCc2c1cc1n(c2=O)Cc2cc3c(CN(C)C)c(O)ccc3nc2-1 + Cc1[nH]c2ccc(F)cc2c1-c1nc2c3cccnc3c3ncccc3c2[nH]1", "valueKind": "viability, T/C", "number": 91.3}

// next entry
Form: Entry = Cn1ncnc1[C@H]1c2n[nH]c(=O)c3cc(F)cc(c23)N[C@@H]1c1ccc(F)cc1 + Cc1[nH]c2ccc(F)cc2c1-c1nc2c3cccnc3c3ncccc3c2[nH]1 | System = 695427-040-R-J1-PDC complex spheroids, viability percent T/C | viability, T/C = ____
96.1

---

Listing of recorded viability, T/C by entry.
Tested on: 695427-040-R-J1-PDC complex spheroids, viability percent T/C
testMethodNotes: Anticancer human tumor 695427-040-R-J1-PDC cell line growth inhibition [GQUAD];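 note: spheroids exposed to compounds for seven days before readout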
details: second compound 3.16 µM; first compound 0.1 µM; active compounds read low
Entry rule: numbers only, all in %.

{"compound": "O=C(c1cc(Cc2n[nH]c(=O)c3ccccc23)ccc1F)N1CCN(C(=O)C2CC2)CC1 + Cc1[nH]c2ccc(F)cc2c1-c1nc2c3cccnc3c3ncccc3c2[nH]1", "studySystem": "695427-040-R-J1-PDC complex spheroids, viability percent T/C", "resultUnits": "%", "number": 87.2}
{"compound": "Cc1cccc(N(C)C(=O)C2C(O)CCN2c2nc(C)cc(C(F)(F)F)c2C#N)c1 (stereo not given) + Cc1cnc(CNC(=O)c2c(=O)c3ccc(N4CCCN(C)CC4)nc3n3c2sc2ccccc23)cn1", "studySystem": "695427-040-R-J1-PDC complex spheroids, viability percent T/C", "resultUnits": "%", "number": 47}
{"compound": "CC(=O)O[C@H]1C(=O)[C@@]2(C)[C@H]([C@H](OC(=O)c3ccccc3)[C@]3(O)C[C@H](OC(=O)[C@H](O)[C@@H](NC(=O)c4ccccc4)c4ccccc4)C(C)=C1C3(C)C)[C@]1(OC(C)=O)CO[C@@H]1C[C@@H]2O + Cc1[nH]c2ccc(F)cc2c1-c1nc2c3cccnc3c3ncccc3c2[nH]1", "studySystem": "695427-040-R-J1-PDC complex spheroids, viability percent T/C", "resultUnits": "%", "number": 82.9}

I have this compound here, CC(C)(O)C1CCC(Nc2ccc3ncc(-c4cccc(C(F)(F)F)c4)n3n2)CC1 (stereo not given) + Cc1cnc(CNC(=O)c2c(=O)c3ccc(N4CCCN(C)CC4)nc3n3c2sc2ccccc23)cn1 , and I need its recorded viability, T/C.
40.6

And for COc1cccc2c1C(=O)c1c(O)c3c(c(O)c1C2=O)CC(O)(C(=O)CO)CC3OC1CC(N)C(O)C(C)O1 (stereo not given) + CN(C)c1ccc(Nc2c3ccc(NC(=O)CCN4CCCC4)cc3nc3cc(NC(=O)CCN4CCCC4)ccc23)cc1 ?
87.2

And for C=CC(=O)N1CCN(c2nc(=O)n(-c3c(C)ccnc3C(C)C)c3nc(-c4c(O)cccc4F)c(F)cc23)C(C)C1 (stereo not given) + Cc1[nH]c2ccc(F)cc2c1-c1nc2c3cccnc3c3ncccc3c2[nH]1 ?
77.1

And for CC(C)n1c(=O)n(C)c2cnc3cc(F)c(-c4ccc(OCCCN5CCCCC5)nc4)cc3c21 + CN(C)c1ccc(Nc2c3ccc(NC(=O)CCN4CCCC4)cc3nc3cc(NC(=O)CCN4CCCC4)ccc23)cc1 ?
101

And for CC1COCCN1c1cc(-c2ccnn2C)c2ccnc(-c3ccn[nH]3)c2n1 (stereo not given) + Cc1[nH]c2ccc(F)cc2c1-c1nc2c3cccnc3c3ncccc3c2[nH]1 ?
41.7

And for CC(C)(O)C1CCC(Nc2ccc3ncc(-c4cccc(C(F)(F)F)c4)n3n2)CC1 (stereo not given) + Cc1[nH]c2ccc(F)cc2c1-c1nc2c3cccnc3c3ncccc3c2[nH]1 ?
86.9

And for CC1COCCN1c1cc(C2(O)CC3CCC(C2)O3)c2cnn(-c3ccn[nH]3)c2n1 (stereo not given) + Cc1[nH]c2ccc(F)cc2c1-c1nc2c3cccnc3c3ncccc3c2[nH]1 ?
55.8

---

Tested on: 695427-040-R-J1-PDC complex spheroids, viability percent T/C
testMethodNotes: Anticancer human tumor 695427-040-R-J1-PDC cell line growth inhibition [GQUAD];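 note: spheroids exposed to compounds for seven days before readout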
details: second compound 0.1 µM; first compound 3.16 µM; active compounds read low
valueKind: viability, T/C (%)
Entry rule: numbers only, all in %.

{"compound": "COc1ccc([C@@H](O)c2cc(-c3ncnc4cc(N5CCOCC5)ccc34)c(F)cc2Cl)nn1 + Cc1[nH]c2ccc(F)cc2c1-c1nc2c3cccnc3c3ncccc3c2[nH]1", "studySystem": "695427-040-R-J1-PDC complex spheroids, viability percent T/C", "viability, T/C [%]": 72.1}

I have this compound here, C#Cc1c(F)ccc2cc(O)cc(-c3ncc4c(N5CC6CCC(C5)N6)nc(OCC56CCCN5CC(F)C6)nc4c3F)c12 (stereo not drawn) + Cc1[nH]c2ccc(F)cc2c1-c1nc2c3cccnc3c3ncccc3c2[nH]1 , and I need its recorded viability, T/C.
7.36

And for O=c1[nH]cc(F)c(=O)[nH]1 + Cc1cnc(CNC(=O)c2c(=O)c3ccc(N4CCCN(C)CC4)nc3n3c2sc2ccccc23)cn1 ?
94.2

---

Tested on: 695427-040-R-J1-PDC complex spheroids, viability percent T/C
testMethodNotes: Anticancer human tumor 695427-040-R-J1-PDC cell line growth inhibition [GQUAD];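 note: spheroids exposed to compounds for seven days before readout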
details: second compound 10 µM; first compound 0.000999 µM; active compounds read low
valueKind: viability, T/C (%)
Entry rule: numbers only, all in %.

Worked examples follow.
{"compound": "Cn1ncnc1[C@H]1c2n[nH]c(=O)c3cc(F)cc(c23)N[C@@H]1c1ccc(F)cc1 + Cc1cnc(CNC(=O)c2c(=O)c3ccc(N4CCCN(C)CC4)nc3n3c2sc2ccccc23)cn1", "resultUnits": "%", "viability, T/C": 37.8}
{"compound": "Cn1ncnc1[C@H]1c2n[nH]c(=O)c3cc(F)cc(c23)N[C@@H]1c1ccc(F)cc1 + CN(C)c1ccc(Nc2c3ccc(NC(=O)CCN4CCCC4)cc3nc3cc(NC(=O)CCN4CCCC4)ccc23)cc1", "resultUnits": "%", "viability, T/C": 93.3}
{"compound": "Cc1[nH]c2ccccc2c1CCNCc1ccc(/C=C/C(=O)NO)cc1 + Cc1cnc(CNC(=O)c2c(=O)c3ccc(N4CCCN(C)CC4)nc3n3c2sc2ccccc23)cn1", "resultUnits": "%", "viability, T/C": 21.6}

I have this compound here, CCc1c2c(nc3ccc(O)cc13)-c1cc3c(c(=O)n1C2)COC(=O)[C@]3(O)CC + Cc1cnc(CNC(=O)c2c(=O)c3ccc(N4CCCN(C)CC4)nc3n3c2sc2ccccc23)cn1 , and I need its recorded viability, T/C.
39.7
